target-or-test-system: T1, CTLA4-mFc
T1 construct: also called CTLA4ECD-mFc fusion protein; CTLA4 antigen
T1 sequence (chain, as listed by the source limits assumed): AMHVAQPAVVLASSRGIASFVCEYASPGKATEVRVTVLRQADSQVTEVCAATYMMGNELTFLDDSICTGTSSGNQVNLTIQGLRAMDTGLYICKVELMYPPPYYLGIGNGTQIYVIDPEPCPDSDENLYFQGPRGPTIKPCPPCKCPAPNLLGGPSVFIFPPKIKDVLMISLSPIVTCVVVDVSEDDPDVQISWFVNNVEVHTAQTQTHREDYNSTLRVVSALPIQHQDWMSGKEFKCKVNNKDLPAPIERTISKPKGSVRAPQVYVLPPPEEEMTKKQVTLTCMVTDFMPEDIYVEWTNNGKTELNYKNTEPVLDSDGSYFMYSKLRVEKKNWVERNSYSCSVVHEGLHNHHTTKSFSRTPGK
assay-info: competitive ELISA, competitor B7-2
measurement-type: pEC50
In plain terms, pEC50 is the concentration in mol/L turned into minus its base-10 logarithm.

**Q:** // lookup pEC50 for humanized antibody 8D2H1L1 (antibody, V domains shown) VH: EVQLVESGGGLVQPGGSMRLSCAASGFTFSDNWMNWVRQAPGKGLEWLAQIRNKPYNYETYYSDSVKGRFTISRDDSKNSVYLQMNSLKTEDTGVYYCTAQFAYWGQGTLVTVSS VL: DIQMTQSPSSLSASVGDRVTITCRTSENIYGGLNWYQRKQGKSPKLLIYGATNLASGMSSRFSGSGSGTDYTLKISSLHPDDVATYYCQNVLRSPFTFGSGTKLEIK
**A:** 9.75

**Q:** // lookup pEC50 for humanized antibody 8D2H2L17 (antibody, V domains shown) VH: EVQLVESGGGLVQPGGSMRLSCAASGFTFSDNWMNWVRQAPGKGLEWLAQIRNKPYNYETYYSASVKGRFTISRDDSKNSVYLQMNSLKTEDTGVYYCTAQFAYWGQGTLVTVSS VL: DIQMTQSPSSLSASVGDRVTITCRTSENIYGGLNWYQRKPGKSPKLLIYGATNLASGVSSRFSGSGSGTDYTLTISSLQPEDVATYYCQNVLSSRPGFGSGTKLEIK
**A:** 9.53

**Q:** // lookup pEC50 for humanized antibody 8D2H2L15 (antibody, V domains shown) VH: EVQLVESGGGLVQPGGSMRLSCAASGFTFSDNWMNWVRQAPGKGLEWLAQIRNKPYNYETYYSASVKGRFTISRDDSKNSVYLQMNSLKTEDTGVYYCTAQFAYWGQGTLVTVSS VL: DIQMTQSPSSLSASVGDRVTITCRTSENIYGGLNWYQRKPGKSPKLLIYGATNLASGVSSRFSGSGSGTDYTLTISSLQPEDVATYYCQNVLSRHPGFGSGTKLEIK
**A:** 9.64

**Q:** // lookup pEC50 for monoclonal antibody 8D2 (antibody, V domains shown, Mouse antibody purified from hybridoma supernatant; also called mAb 8D2; antibody secreted by the CTLA4-8D2 hybridoma cell line LT001) VH: EVKLDETGGGLVQPGRPMKLSCVASGFTFSDNWMNWVRQSPEKGLEWLAQIRNKPYNYETYYSDSVKGRFTISRDDSKSSVYLQMNNLRGEDMGIYYCTAQFAYWGQGTLVTVSA VL: DIQMTQSPASLSASVGETVTITCGTSENIYGGLNWYQRKQGKSPQLLIFGATNLADGMSSRFSGSGSGRQYSLKISSLHPDDVATYYCQNVLRSPFTFGSGTKLEI
**A:** 9.68

**Q:** // lookup pEC50 for humanized antibody 8D2H3L3 (antibody, V domains shown) VH: EVQLVESGGGLVQPGGSLRLSCAASGFTFSDNWMNWVRQAPGKGLEWVAQIRNKPYNYETEYAASVKGRFTISRDDSKNSAYLQMNSLKTEDTAVYYCTAQFAYWGQGTLVTVSS VL: DIQMTQSPSSLSASVGDRVTITCRASENIYGGLNWYQQKPGKAPKLLIYGATSLASGVPSRFSGSGSGTDYTLTISSLQPEDFATYYCQNVLRSPFTFGSGTKLEIK
**A:** 9.78

**Q:** // lookup pEC50 for 8D2 recombinant antibody, 8D2(Re) (antibody, V domains shown) VH: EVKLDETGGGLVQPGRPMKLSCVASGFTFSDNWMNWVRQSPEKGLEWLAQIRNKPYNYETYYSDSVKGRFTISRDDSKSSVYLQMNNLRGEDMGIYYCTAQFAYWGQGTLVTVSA VL: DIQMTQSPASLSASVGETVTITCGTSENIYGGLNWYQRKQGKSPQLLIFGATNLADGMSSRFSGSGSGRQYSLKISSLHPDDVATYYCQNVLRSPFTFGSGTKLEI
**A:** 9.82
